Molecular target: human anti-nonαGal (anti-NeuGc)
Assay: Inhibition of human anti-nonαGal binding to pRBC by sialic acids, flow cytometry
Details: based on mean fluorescent intensity (MFI); read-out: I50 value (concentration that gives rise to 50% inhibition)
pIC50: −log10 of the molar value.
valueKind: pIC50

Answer with pIC50 of O=C(CO)N[C@H]1[C@H]([C@H](O)[C@H](O)CO)OC(O)(C(=O)O)C[C@@H]1O (stereo partly shown) measured for human anti-nonαGal (anti-NeuGc).
~4.14
